testedTarget: SARS-CoV-2 3CL-protease (Severe acute respiratory syndrome coronavirus 2, UniProt P0DTD1)
procedureText: SARS-CoV-2 3C-like (3CL) protease fluorescence assay (FRET)
Type: biochemical
particulars: recombinant SARS-CoV-2 3CL-protease 10 nM, 30 min preincubation, run in duplicate; read-out: FRET IC50
IC50 by entry:

smiles	observed
[2H]C([2H])([2H])N(C(=O)C(=O)c1ccc(F)cc1)[C@@H](CCCC)C(=O)N1C[C@]2(C[C@H]1C#N)C(=O)Nc1ccccc12	< 100 nM
CC(C)(C)C[C@H](NC(=O)C(=O)Nc1c(F)cccc1C(F)(F)F)C(=O)N1C[C@]2(C[C@H]1C#N)C(=O)Nc1ccccc12	< 100 nM

Ask | Supply reported IC50 belonging to this compound: CC(C)(C)C[C@H](NC(=O)C(=O)Nc1ccc2cccnc2c1)C(=O)N1C[C@]2(C[C@H]1C#N)C(=O)Nc1ccccc12
Reply | < 100 nM

Ask | State its IC50: Cc1cccc(C)c1NC(=O)C(=O)N[C@@H](CC(C)C)C(=O)N1C[C@]2(C[C@H]1C#N)C(=O)Nc1ccccc12
Reply | < 100 nM

Ask | Note IC50 for the compound shown: Cc1cc(F)cc(C)c1NC(=O)C(=O)N[C@@H](CC(C)(C)C)C(=O)N1C[C@]2(C[C@H]1C#N)C(=O)Nc1ccccc12
Reply | < 100 nM

Ask | Assign IC50 to the following record: CC(C)(C)C[C@@H](C(=O)N1C[C@]2(C[C@H]1C#N)C(=O)Nc1ccccc12)N(CC(F)(F)F)C(=O)C(=O)NC1CC1
Reply | 100 to 1000 nM

Ask | Name the recorded IC50 of the item N#C[C@@H]1C[C@@]2(CN1C(=O)[C@H](CC1CC1)NC(=O)C(=O)Nc1ccncc1C(F)(F)F)C(=O)Nc1ccccc12 in your answer.
Reply | < 100 nM

Ask | Supply recorded IC50 for N#C[C@@H]1C[C@@]2(CN1C(=O)[C@H](CC1CC1)NC(=O)C(=O)Nc1ccc(F)cc1C(F)(F)F)C(=O)Nc1ccccc12 here.
Reply | < 100 nM

Ask | Identify IC50 associated with the compound CC(C)(C)C[C@H](NC(=O)C(=O)Nc1ncccc1F)C(=O)N1C[C@]2(C[C@H]1C#N)C(=O)Nc1ccccc12
Reply | < 100 nM

Ask | Answer with the recorded IC50 for the compound listed here: CC(C)C[C@H]1C(=O)N2C[C@]3(C[C@H]2C#N)C(=O)Nc2ccc(cc23)CCCCNC(=O)C(=O)N1C
Reply | 100 to 1000 nM

Ask | Give a short answer stating reported IC50 for CC(C)(C)C[C@H](NC(=O)C(=O)Nc1cccnc1C(F)(F)F)C(=O)N1C[C@]2(C[C@H]1C#N)C(=O)Nc1ccccc12 .
Reply | < 100 nM

Ask | Hello, please tell me recorded IC50 for this one: N#C[C@@H]1C[C@@]2(CN1C(=O)[C@H](CC1CC1)NC(=O)C(=O)Nc1cnccc1C(F)(F)F)C(=O)Nc1ccccc12
Reply | < 100 nM

Ask | Respond only with IC50 recorded for CC(C)(C)C[C@H](NC(=O)C(=O)Nc1c(C(F)(F)F)cncc1C(F)(F)F)C(=O)N1C[C@]2(C[C@H]1C#N)C(=O)Nc1ccccc12
Reply | < 100 nM

* * *

testedTarget: SARS-CoV-2 3CL-protease (Severe acute respiratory syndrome coronavirus 2, UniProt P0DTD1)
procedureText: SARS-CoV-2 3C-like (3CL) protease fluorescence assay (FRET)
Assay type: biochemical
particulars: recombinant SARS-CoV-2 3CL-protease 10 nM, 30 min preincubation, run in duplicate; read-out: FRET IC50
pIC50: −log10 of the molar value.
# maps each entry to its pIC50

Examples from the recorded data:
smiles	testedTarget	observed
[2H]C([2H])([2H])N(C(=O)C(=O)NCc1ccc(F)cc1F)[C@@H](CC1CC1)C(=O)N1C[C@]2(C[C@H]1C#N)C(=O)Nc1ccccc12	SARS-CoV-2 3CL-protease (Severe acute respiratory syndrome coronavirus 2, UniProt P0DTD1)	> 7.00
Cc1ccnc(C)c1NC(=O)C(=O)N[C@@H](CC(C)(C)C)C(=O)N1C[C@]2(C[C@H]1C#N)C(=O)Nc1ccccc12	SARS-CoV-2 3CL-protease (Severe acute respiratory syndrome coronavirus 2, UniProt P0DTD1)	> 7.00
N#C[C@@H]1C[C@@]2(CN1C(=O)[C@H](CC1CC1)NC(=O)C(=O)Nc1ccc(C(F)(F)F)cc1C(F)(F)F)C(=O)Nc1ccccc12	SARS-CoV-2 3CL-protease (Severe acute respiratory syndrome coronavirus 2, UniProt P0DTD1)	> 7.00
CC(C)(C)C[C@@H](C(=O)N1C[C@]2(C[C@H]1C#N)C(=O)Nc1ccccc12)N(CC(F)(F)F)C(=O)C(=O)Nc1ccccn1	SARS-CoV-2 3CL-protease (Severe acute respiratory syndrome coronavirus 2, UniProt P0DTD1)	< 6.00
CC(C)(C)C[C@H](NC(=O)C(=O)Nc1ccccc1F)C(=O)N1C[C@]2(C[C@H]1C#N)C(=O)Nc1ccccc12	SARS-CoV-2 3CL-protease (Severe acute respiratory syndrome coronavirus 2, UniProt P0DTD1)	> 7.00

Attention now turns to another entry.
Ask | # return recorded pIC50 for input CC(C)(C)C[C@H](NC(=O)C(=O)Nc1cc(C(F)(F)F)ccn1)C(=O)N1C[C@]2(C[C@H]1C#N)C(=O)Nc1ccccc12
Reply | > 7.00

* * *

testedTarget: SARS-CoV-2 3CL-protease (Severe acute respiratory syndrome coronavirus 2, UniProt P0DTD1)
procedureText: SARS-CoV-2 3C-like (3CL) protease fluorescence assay (FRET)
Format: biochemical
particulars: recombinant SARS-CoV-2 3CL-protease 10 nM, 30 min preincubation, run in duplicate; read-out: FRET IC50
# IC50 per entry

smiles	IC50
CC(C)(C)C[C@H](NC(=O)C(=O)Nc1cccc(C(F)(F)F)n1)C(=O)N1C[C@]2(C[C@H]1C#N)C(=O)Nc1ccccc12	< 100 nM
CCCC[C@H](NC(=O)C(=O)Nc1ccc(F)cc1C(F)(F)F)C(=O)N1C[C@]2(C[C@H]1C#N)C(=O)Nc1ccccc12	< 100 nM
CC(C)(C)C[C@H](NC(=O)C(=O)Nc1ccc2ncccc2c1)C(=O)N1C[C@]2(C[C@H]1C#N)C(=O)Nc1ccccc12	< 100 nM

Ask | Supply reported IC50 belonging to this compound: CC(C)(C)C[C@H](NC(=O)C(=O)C1CC1)C(=O)N1C[C@]2(C[C@H]1C#N)C(=O)Nc1ccccc12
Reply | 100 to 1000 nM

Ask | Let me know recorded IC50 for N#C[C@@H]1C[C@@]2(CN1C(=O)[C@H](CC1CC1)NC(=O)C(=O)Nc1ccnc(C(F)(F)F)c1)C(=O)Nc1ccccc12 , thanks.
Reply | < 100 nM

Ask | Consider the compound CC(C)(C)C[C@H](NC(=O)C(=O)NC1CCC(F)(F)CC1)C(=O)N1C[C@]2(C[C@H]1C#N)C(=O)Nc1ccccc12 and give its recorded IC50.
Reply | < 100 nM

Ask | Provide IC50 value for the following compound: CC(C)(C)C[C@H](NC(=O)C(=O)Nc1ccc(F)cc1F)C(=O)N1C[C@]2(C[C@H]1C#N)C(=O)Nc1ccccc12
Reply | < 100 nM

Ask | Consider the compound CC(C)(C)C[C@H](NC(=O)C(=O)Nc1cnccc1C(F)(F)F)C(=O)N1C[C@]2(C[C@H]1C#N)C(=O)Nc1ccccc12 and give its recorded IC50.
Reply | < 100 nM

* * *

testedTarget: SARS-CoV-2 3CL-protease (Severe acute respiratory syndrome coronavirus 2, UniProt P0DTD1)
procedureText: SARS-CoV-2 3C-like (3CL) protease fluorescence assay (FRET)
Format: biochemical
particulars: recombinant SARS-CoV-2 3CL-protease 10 nM, 30 min preincubation, run in duplicate; read-out: FRET IC50
pIC50: −log10 of the molar value.
testReadout: pIC50

Sample records with pIC50:
compound	observed
CC(C)(C)C[C@H](NC(=O)C(=O)Nc1c(C(F)(F)F)ccc(Cl)c1Cl)C(=O)N1C[C@]2(C[C@H]1C#N)C(=O)Nc1ccccc12	> 7.00
CC(C)(C)C[C@H](NC(=O)C(=O)OC(C)(C)C)C(=O)N1C[C@]2(C[C@H]1C#N)C(=O)Nc1ccccc12	6.00 to 7.00
CC(C)(C)C[C@H](NC(=O)C(=O)c1ccccc1)C(=O)N1C[C@]2(C[C@H]1C#N)C(=O)Nc1ccccc12	6.00 to 7.00
Cc1cccc(C)c1NC(=O)C(=O)N[C@@H](Cc1ccc(F)cc1)C(=O)N1C[C@]2(C[C@H]1C#N)C(=O)Nc1ccccc12	> 7.00
CC(C)(C)C[C@H](NC(=O)C(=O)Nc1c(Cl)cccc1C(F)(F)F)C(=O)N1C[C@]2(C[C@H]1C#N)C(=O)Nc1ccccc12	> 7.00

Ask | Note down pIC50 recorded for CC(C)(C)C[C@H](NC(=O)C(=O)C(C)(C)C)C(=O)N1C[C@]2(C[C@H]1C#N)C(=O)Nc1ccccc12
Reply | < 6.00

Ask | Give the measured pIC50 for CC(C)(C)C[C@H](NC(=O)C(=O)c1c[nH]c2ccccc12)C(=O)N1C[C@]2(C[C@H]1C#N)C(=O)Nc1ccccc12
Reply | 6.00 to 7.00

Ask | Give recorded pIC50. CC(C)(C)C[C@H](NC(=O)C(=O)N[C@]12C[C@](C)(C1)C2)C(=O)N1C[C@]2(C[C@H]1C#N)C(=O)Nc1ccccc12
Reply | > 7.00

Ref: patent US12643905B2
